Assay: AUC in Wistar rat at 2 mg/kg, iv
Format: ADME, organism-based
Set-up: dose 2 mg/kg, route intravenous
Details: plasma

COMPOUND	AUC, ng·h/mL
CCS(=O)(=O)O.COC(=O)c1ccc2c(c1)NC(=O)/C2=C(\Nc1ccc(N(C)C(=O)CN2CCN(C)CC2)cc1)c1ccccc1 [NINTEDANIB ESYLATE]	181

###

Experiment: Drug excretion in healthy male after 24 to 48 hrs
Format: ADME, organism-based
Conditions: human, in vivo, read-out: Drug excretion

MOLECULE	dose excreted, %
CCS(=O)(=O)O.COC(=O)c1ccc2c(c1)NC(=O)/C2=C(\Nc1ccc(N(C)C(=O)CN2CCN(C)CC2)cc1)c1ccccc1 [NINTEDANIB ESYLATE]	56.3

###

Test: Oral bioavailability in Cynomolgus monkey at 40 mg/kg
Type: ADME, organism-based, Macaca fascicularis
Conditions: in vivo

COMPOUND	UNIT OF MEASURE	bioavailability
CCS(=O)(=O)O.COC(=O)c1ccc2c(c1)NC(=O)/C2=C(\Nc1ccc(N(C)C(=O)CN2CCN(C)CC2)cc1)c1ccccc1 [NINTEDANIB ESYLATE]	%	13.2

###

Test: Cmax in Rhesus monkey at 5 mg/kg, iv
Type: ADME, organism-based, Macaca mulatta
Parameters: dose 5 mg/kg, route intravenous
Conditions: in vivo
REPORTED ENDPOINT: Cmax (ng/mL)

COMPOUND	UNIT OF MEASURE	EXPERIMENTAL VALUE
CCS(=O)(=O)O.COC(=O)c1ccc2c(c1)NC(=O)/C2=C(\Nc1ccc(N(C)C(=O)CN2CCN(C)CC2)cc1)c1ccccc1 [NINTEDANIB ESYLATE]	ng/mL	1090

###

Experiment: Half life in Cynomolgus monkey at 5 mg/kg, iv
Assay type: ADME, organism-based, Macaca fascicularis
Set-up: dose 5 mg/kg, route intravenous
Details: in vivo
REPORTED ENDPOINT: half-life

COMPOUND	EXPERIMENTAL VALUE
CCS(=O)(=O)O.COC(=O)c1ccc2c(c1)NC(=O)/C2=C(\Nc1ccc(N(C)C(=O)CN2CCN(C)CC2)cc1)c1ccccc1 [NINTEDANIB ESYLATE]	5.95 h

###

Experiment: Mean residence time in Rhesus monkey at 5 mg/kg, iv
Assay type: ADME, organism-based, Macaca mulatta
Parameters: dose 5 mg/kg, route intravenous
Settings: in vivo

COMPOUND	MRT / h
CCS(=O)(=O)O.COC(=O)c1ccc2c(c1)NC(=O)/C2=C(\Nc1ccc(N(C)C(=O)CN2CCN(C)CC2)cc1)c1ccccc1 [NINTEDANIB ESYLATE]	5.7

###

Assay: Clearance in Cynomolgus monkey at 5 mg/kg, iv
Type: ADME, organism-based, Macaca fascicularis
Parameters: dose 5 mg/kg, route intravenous
Conditions: in vivo

MOLECULE	clearance, L/h/kg
CCS(=O)(=O)O.COC(=O)c1ccc2c(c1)NC(=O)/C2=C(\Nc1ccc(N(C)C(=O)CN2CCN(C)CC2)cc1)c1ccccc1 [NINTEDANIB ESYLATE]	2.25
